- Tested on: Escherichia coli TOP10
- PROTOCOL_DETAILS: shrunken log2 fold change of peptide-encoding DNA abundance (4.5 h post-induction vs induction); higher = less antimicrobial activity (less host growth inhibition)
- SETUP_CONDITIONS: time post-induction: 4.5 h; library: site-saturation at positions 5, 18, 19, 20
MEASUREMENT_KIND: shrunken log2 fold change
Would you mind answering with just the numeric figure?

Recorded shrunken log2 fold change of `RRIRPRPPRLPRPRPRPTFLPRP` , please.
-0.0646

Recorded shrunken log2 fold change of `RRIRPRPPRLPRPRPRPFNEPRP` , please.
-0.347

Next:
Recorded shrunken log2 fold change of `RRIRSRPPRLPRPRPRPWWNPRP` , please.
-0.0574

###

- Test system: Escherichia coli TOP10
- PROTOCOL_DETAILS: shrunken log2 fold change of peptide-encoding DNA abundance (4.5 h post-induction vs induction); higher = less antimicrobial activity (less host growth inhibition)
- SETUP_CONDITIONS: time post-induction: 4.5 h; library: site-saturation at positions 5, 18, 19, 20
MEASUREMENT_KIND: shrunken log2 fold change
Would you mind answering with just the numeric figure?

# annotated cases, reported shrunken log2 fold change shown
Recorded shrunken log2 fold change of `RRIRHRPPRLPRPRPRPIIPPRP` , please.
-0.197

Recorded shrunken log2 fold change of `RRIRHRPPRLPRPRPRPPHHPRP` , please.
-0.0583

Recorded shrunken log2 fold change of `RRIRQRPPRLPRPRPRPFVRPRP` , please.
-0.0842

Recorded shrunken log2 fold change of `RRIRYRPPRLPRPRPRPCEAPRP` , please.
-0.123

Recorded shrunken log2 fold change of `RRIRGRPPRLPRPRPRPHDDPRP` , please.
0.0376

Recorded shrunken log2 fold change of `RRIRWRPPRLPRPRPRPKAPPRP` , please.
0.378

Note: attention shifts to another entry.
Recorded shrunken log2 fold change of `RRIRGRPPRLPRPRPRPEPTPRP` , please.
1.52

###

- Tested on: Escherichia coli TOP10
- PROTOCOL_DETAILS: shrunken log2 fold change of peptide-encoding DNA abundance (4.5 h post-induction vs induction); higher = less antimicrobial activity (less host growth inhibition)
- SETUP_CONDITIONS: time post-induction: 4.5 h; library: site-saturation at positions 5, 18, 19, 20
Think of -0.2 as a floor: if shrunken log2 fold change stands on it or above, it is condition met; beneath it, condition not met.

Does shrunken log2 fold change meet or surpass -0.2 for `RRIRNRPPRLPRPRPRPPIVPRP` ?
condition met

Does shrunken log2 fold change meet or surpass -0.2 for `RRIRARPPRLPRPRPRPRIKPRP` ?
condition met

Does shrunken log2 fold change meet or surpass -0.2 for `RRIRLRPPRLPRPRPRPMMEPRP` ?
condition met

Does shrunken log2 fold change meet or surpass -0.2 for `RRIRHRPPRLPRPRPRPYCVPRP` ?
condition met

Does shrunken log2 fold change meet or surpass -0.2 for `RRIRCRPPRLPRPRPRPYWGPRP` ?
condition not met

###

Recorded shrunken log2 fold change values for a group of sequences are listed next.
- Test system: Escherichia coli TOP10
- PROTOCOL_DETAILS: shrunken log2 fold change of peptide-encoding DNA abundance (4.5 h post-induction vs induction); higher = less antimicrobial activity (less host growth inhibition)
- SETUP_CONDITIONS: time post-induction: 4.5 h; library: site-saturation at positions 5, 18, 19, 20

Recorded shrunken log2 fold change of `RRIRIRPPRLPRPRPRPENSPRP` , please.
0.0169

Next:
Recorded shrunken log2 fold change of `RRIRYRPPRLPRPRPRPYRMPRP` , please.
-0.725

Recorded shrunken log2 fold change of `RRIRPRPPRLPRPRPRPCCDPRP` , please.
0.249

###

- Tested on: Escherichia coli TOP10
- PROTOCOL_DETAILS: shrunken log2 fold change of peptide-encoding DNA abundance (4.5 h post-induction vs induction); higher = less antimicrobial activity (less host growth inhibition)
- SETUP_CONDITIONS: time post-induction: 4.5 h; library: site-saturation at positions 5, 18, 19, 20
Recorded shrunken log2 fold change values for a group of sequences are listed next.
Would you mind answering with just the numeric figure?

Recorded shrunken log2 fold change of `RRIRSRPPRLPRPRPRPFSFPRP` , please.
-0.633

Recorded shrunken log2 fold change of `RRIRMRPPRLPRPRPRPPAGPRP` , please.
1.5

Recorded shrunken log2 fold change of `RRIRDRPPRLPRPRPRPVDWPRP` , please.
0.812

Next:
Recorded shrunken log2 fold change of `RRIRTRPPRLPRPRPRPQFWPRP` , please.
-0.00273

###

- System: Escherichia coli TOP10
- PROTOCOL_DETAILS: shrunken log2 fold change of peptide-encoding DNA abundance (4.5 h post-induction vs induction); higher = less antimicrobial activity (less host growth inhibition)
- SETUP_CONDITIONS: time post-induction: 4.5 h; library: site-saturation at positions 5, 18, 19, 20
Each record's class is read off its shrunken log2 fold change using these ranges: 1: < -0.1; 2: ≥ -0.1 and < 0.1; 3: ≥ 0.1

// below: answered sequences
Looking at `RRIRFRPPRLPRPRPRPQNLPRP` , which class would you pick?
1

Looking at `RRIRFRPPRLPRPRPRPIQCPRP` , which class would you pick?
1

Looking at `RRIRWRPPRLPRPRPRPTTLPRP` , which class would you pick?
2

Looking at `RRIRYRPPRLPRPRPRPCAIPRP` , which class would you pick?
2

Looking at `RRIRTRPPRLPRPRPRPMIMPRP` , which class would you pick?
1

Next:
Looking at `RRIRHRPPRLPRPRPRPKWNPRP` , which class would you pick?
1

Looking at `RRIRDRPPRLPRPRPRPNEGPRP` , which class would you pick?
2

Looking at `RRIRVRPPRLPRPRPRPIREPRP` , which class would you pick?
1

Looking at `RRIRGRPPRLPRPRPRPQEGPRP` , which class would you pick?
2

Looking at `RRIRPRPPRLPRPRPRPVPGPRP` , which class would you pick?
3

Looking at `RRIRKRPPRLPRPRPRPRQEPRP` , which class would you pick?
3

###

- Test system: Escherichia coli TOP10
- PROTOCOL_DETAILS: shrunken log2 fold change of peptide-encoding DNA abundance (4.5 h post-induction vs induction); higher = less antimicrobial activity (less host growth inhibition)
- SETUP_CONDITIONS: time post-induction: 4.5 h; library: site-saturation at positions 5, 18, 19, 20
MEASUREMENT_KIND: shrunken log2 fold change
Would you mind answering with just the numeric figure?

# annotated cases, reported shrunken log2 fold change shown
Lab request: please report shrunken log2 fold change under test system Escherichia coli TOP10 for `RRIRHRPPRLPRPRPRPGGSPRP`
-0.0606

Lab request: please report shrunken log2 fold change under test system Escherichia coli TOP10 for `RRIRTRPPRLPRPRPRPTGPPRP`
0.48

Lab request: please report shrunken log2 fold change under test system Escherichia coli TOP10 for `RRIRMRPPRLPRPRPRPIAFPRP`
-0.0147

Next:
Lab request: please report shrunken log2 fold change under test system Escherichia coli TOP10 for `RRIRCRPPRLPRPRPRPTAMPRP`
-0.113

Lab request: please report shrunken log2 fold change under test system Escherichia coli TOP10 for `RRIRVRPPRLPRPRPRPRRPPRP`
0.34

Lab request: please report shrunken log2 fold change under test system Escherichia coli TOP10 for `RRIRLRPPRLPRPRPRPEIMPRP`
-0.00809

###

- System: Escherichia coli TOP10
- PROTOCOL_DETAILS: shrunken log2 fold change of peptide-encoding DNA abundance (4.5 h post-induction vs induction); higher = less antimicrobial activity (less host growth inhibition)
- SETUP_CONDITIONS: time post-induction: 4.5 h; library: site-saturation at positions 5, 18, 19, 20
MEASUREMENT_KIND: shrunken log2 fold change
Would you mind answering with just the numeric figure?

Recorded shrunken log2 fold change of `RRIRNRPPRLPRPRPRPRMPPRP` , please.
-0.0444

Recorded shrunken log2 fold change of `RRIRHRPPRLPRPRPRPPGFPRP` , please.
0.011

Recorded shrunken log2 fold change of `RRIRGRPPRLPRPRPRPFCLPRP` , please.
0.229

Recorded shrunken log2 fold change of `RRIRCRPPRLPRPRPRPDWKPRP` , please.
0.0808

###

- Tested on: Escherichia coli TOP10;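 further: peptides expressed intracellularly from a pBAD plasmid library in pooled LB shake-flask culture, induced with 0.3% L-arabinose, DNA abundance read by NGS, three biological replicates, DESeq2 with apeglm shrinkage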
- PROTOCOL_DETAILS: shrunken log2 fold change of peptide-encoding DNA abundance (4.5 h post-induction vs induction); higher = less antimicrobial activity (less host growth inhibition)
- SETUP_CONDITIONS: time post-induction: 4.5 h; library: site-saturation at positions 5, 18, 19, 20
MEASUREMENT_KIND: shrunken log2 fold change
Would you mind answering with just the numeric figure?

Recorded shrunken log2 fold change of `RRIRKRPPRLPRPRPRPESHPRP` , please.
-0.00766

Recorded shrunken log2 fold change of `RRIRKRPPRLPRPRPRPHMQPRP` , please.
-0.0772

Recorded shrunken log2 fold change of `RRIRKRPPRLPRPRPRPEWLPRP` , please.
0.576

Recorded shrunken log2 fold change of `RRIRIRPPRLPRPRPRPFTGPRP` , please.
-1.27
